Data provenance is paper PMC7901650.

Biological target: hPXR (Homo sapiens, UniProt O75469)
Construct: GST-LBD
Sequence (O75469 146-433 limits assumed): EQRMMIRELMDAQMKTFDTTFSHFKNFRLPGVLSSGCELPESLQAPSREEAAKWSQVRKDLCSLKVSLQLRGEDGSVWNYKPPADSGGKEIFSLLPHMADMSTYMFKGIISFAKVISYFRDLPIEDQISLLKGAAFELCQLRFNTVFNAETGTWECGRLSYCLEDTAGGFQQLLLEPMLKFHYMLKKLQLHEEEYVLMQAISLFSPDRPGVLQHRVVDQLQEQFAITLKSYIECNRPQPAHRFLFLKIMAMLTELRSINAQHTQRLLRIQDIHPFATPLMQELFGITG
Assay: AlphaScreen coactivator recruitment assay, PXR
Conditions: AlphaScreen dose-response, PXR agonist activity; at least three independent experiments
Property: pEC50; scope: individual molecules
Keep in mind that pEC50 stands for -log10 of concentration in molar terms.

Would you kindly share the measured pEC50 for Cc1cc(O)cc2c1O[C@](C)(CCCC(C)CCCC(C)CCCC(C)CO)CC2 (some centres unmarked) ?
5.80

Here's the next entry for you.
Would you kindly share the measured pEC50 for Cc1cc(O)cc2c1O[C@](C)(CCCC(C)CCCC(C)CCCC(C)C(=O)O)CC2 (some centres unmarked) ?
5.52
